B1: CHIT1 (parent)
chain: CSWKGATKQRIQDQKVPYIFRDNQ

- Variants of: B1
- experiment description: protein stability index of a GFP-peptide fusion (GPS, HEK-293T) (PSI 1-6); higher = more stable;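 also: lentivirally expressed fusions sorted by FACS into six bins by GFP to DsRed ratio, PSI derived from sequencing read proportions per bin multiplied by bin number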
- experimental context: c terminus: a fixed tail appended
Threshold rule: protein stability index greater than or equal to 3 is met; below that, not met.

Take a look at these entries with their results.
> print(dat)
                    sequence.chain  qualitative.label
1   SSWKGATKQRIQDQKVPYIFRDNQ [C1S]                met
2  CSWKGATKQRILDQKVPYIFRDNQ [Q12L]            not met
3  CSWKGATKQRIQDQKNPYIFRDNQ [V16N]            not met
4   YSWKGATKQRIQDQKVPYIFRDNQ [C1Y]            not met
5  CSWKGATKQRIQDQKVPYIFRFNQ [D22F]            not met
6  CSWKGATKQRIQDQKVPYAFRDNQ [I19A]                met
7   CYWKGATKQRIQDQKVPYIFRDNQ [S2Y]            not met
8   CSWKGAGKQRIQDQKVPYIFRDNQ [T7G]            not met

-- ask Is protein stability index for CSWKGATKQRIRDQKVPYIFRDNQ [Q12R] at or above 3?
-- reply not met

-- ask Please tell me: is the variant CSWKGATKQRIQDKKVPYIFRDNQ [Q14K] at or over 3 in terms of protein stability index?
-- reply not met

-- ask Test whether the variant CSWKGATKQRIQDQKVPYIARDNQ [F20A] records protein stability index of 3 or higher.
-- reply met

-- ask Does the variant CSWKGATKQRIQDQKVIYIFRDNQ [P17I] have recorded protein stability index that is 3 or more?
-- reply not met

-- ask Does CSWAGATKQRIQDQKVPYIFRDNQ [K4A] have a reported protein stability index of at least 3?
-- reply not met

-- ask Given the entry CSWKGATKQRIQDQKGPYIFRDNQ [V16G] , answer whether its protein stability index meets or surpasses 3.
-- reply not met

-- ask Record CSWKGATKQRIQVQKVPYIFRDNQ [D13V] ; criterion: protein stability index no lower than 3. Met?
-- reply not met

-- ask Does CSWKGATKQRIMDQKVPYIFRDNQ [Q12M] have a reported protein stability index of at least 3?
-- reply met

-- ask // inclusive: protein stability index at least 3? input: CSWKGATKQRHQDQKVPYIFRDNQ [I11H]
-- reply met

-- ask In plain terms: is recorded protein stability index at least 3 for CSWKGATKQLIQDQKVPYIFRDNQ [R10L] ?
-- reply not met

-- ask Hi, just wondering whether CSWKGATKQRIQDGKVPYIFRDNQ [Q14G] shows protein stability index of 3 or higher.
-- reply not met

-- ask Test whether the variant CSWKGATKQMIQDQKVPYIFRDNQ [R10M] records protein stability index of 3 or higher.
-- reply not met
